- system.tested: ER in MCF-7 cells (Homo sapiens (Human))
- Sequence (P03372 whole entry): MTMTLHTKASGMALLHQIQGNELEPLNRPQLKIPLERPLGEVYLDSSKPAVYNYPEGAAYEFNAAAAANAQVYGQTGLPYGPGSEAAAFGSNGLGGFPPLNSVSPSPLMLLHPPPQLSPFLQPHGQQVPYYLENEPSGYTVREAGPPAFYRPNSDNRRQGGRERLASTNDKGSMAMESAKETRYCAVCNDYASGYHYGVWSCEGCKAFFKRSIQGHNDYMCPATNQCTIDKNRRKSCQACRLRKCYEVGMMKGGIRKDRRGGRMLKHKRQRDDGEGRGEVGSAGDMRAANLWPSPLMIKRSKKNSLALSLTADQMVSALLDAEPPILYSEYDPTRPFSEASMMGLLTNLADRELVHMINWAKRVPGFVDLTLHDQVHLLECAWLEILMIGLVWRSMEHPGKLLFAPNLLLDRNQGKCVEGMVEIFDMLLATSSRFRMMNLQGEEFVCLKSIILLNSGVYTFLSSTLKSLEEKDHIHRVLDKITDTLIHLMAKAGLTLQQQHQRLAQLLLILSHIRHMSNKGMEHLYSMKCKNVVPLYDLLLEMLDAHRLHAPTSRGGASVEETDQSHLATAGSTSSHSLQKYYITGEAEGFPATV
- run.description: In-cell western (ICW) ER degradation assay in MCF-7 cells (Compounds A1-A70)
- Type: cell-based
- condition.label: MCF7, maximal ER degradation, MCF-7 cells, 16 hrs treatment; read-out: MCF7 ICW Dmax (%)
measurement.label: Dmax

Some solved cases for reference:
compound	Dmax
COc1cc(N2CCC(CN3CCN(c4cnc(C(=O)NC5CCC(=O)NC5=O)cc4OC)CC3)CC2)ccc1[C@@H]1c2[nH]c3ccccc3c2C[C@@H](C)N1CC(F)F (some centres unmarked) [Compound A56]	50 to 75%
C[C@@H]1Cc2c([nH]c3ccccc23)[C@@H](c2cnc(N3CCO[C@H](CN4CCN5c6cc7c(cc6OC[C@@H]5C4)C(=O)N(C4CCC(=O)NC4=O)C7)C3)nc2)N1CC(C)(C)F (some centres unmarked) [Compound A22]	25 to 50%
COc1cc(N2CCC(CN3CCN4c5ccc6c(c5OC[C@@H]4C3)CN([C@@H]3CCC(=O)NC3=O)C6=O)CC2)ccc1[C@@H]1c2[nH]c3ccccc3c2C[C@@H](C)N1CC(F)F [Compound A42]	50 to 75%
C[C@@H]1Cc2c([nH]c3ccccc23)[C@@H](c2cnc(N3CCC4(CCC(CN5CCN6c7cc8c(cc7OC[C@@H]6C5)C(=O)N([C@H]5CCC(=O)NC5=O)C8)CC4)CC3)nc2)N1CC(C)(C)F [Compound A9]	25 to 50%

Summary for this compound, C[C@H]1Cc2c([nH]c3ccccc23)[C@H](c2cnc(N3CCC4(CC3)C[C@H](CN3CCN5c6cc7c(cc6OC[C@@H]5C3)C(=O)N([C@@H]3CCC(=O)NC3=O)C7)CO4)nc2)N1CC(F)F [Compound A69] : Dmax is > 75%

src = patent US20260007681A1
